- method notes: chemical genetic growth profiling, strain panel (AID 1159580);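 also: tested at 20 µM; growth read once vehicle control cultures reached saturation at 30 °C; 1 = growth at the plate median or of vehicle wells; lower values mean less growth of the strain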
- measurement setup: S. cerevisiae deletion strains, growth OD, locus YKL190W, strain CNB1, stronger effect = lower value
Among all 5,500 compounds or so, about 2,000 (36%) were called active. Another 18% or so got no clear call; they are omitted. The list shows a part of the results.
Recorded normalized growth, one value per entry.

Some solved entries appear below for comparison.
CC(=O)Oc1ccc2c(c1)CCC1C2CC[C@]2(C)C(=O)CCC12 (stereo partly drawn) :: 1 (inactive)
O=S(=O)(NCc1ccc(F)cc1F)c1cccc(C(F)(F)F)c1 :: 0.977 (inactive)

The molecule identified as O=c1[nH]c(=O)n(C2C[C@H](O)[C@@H](CO)O2)cc1C(F)(F)F (stereo partly drawn) registered its normalized growth at 0.996 (inactive)

All figures here come from PubChem BioAssay AID1159580.
